Tested on: Plasmodium falciparum
test_details: Antimalarial activity against chloroquine-resistant Plasmodium falciparum K1 infected in erythroctes incubated for 72 hrs by SYBR green 1 based spectrofluorometer
Assay type: functional, organism-based, Erythrocyte
condition_details: erythrocyte
readout_type: EC50

Data request: Give the measured EC50 of CCOC(=O)C1=C(C)NC2=C(C(=O)CC(c3ccc(OC)c(OC)c3)C2)C1c1ccc(Cl)cc1 (stereo in doubt; 36A) .
Data returned: 221 nM

###

Test system: Plasmodium falciparum
test_details: Antimalarial activity against chloroquine-resistant Plasmodium falciparum K1 infected in erythroctes incubated for 72 hrs by SYBR green 1 based spectrofluorometer
Assay type: functional, organism-based, Erythrocyte
condition_details: erythrocyte
pEC50 listing for selected compounds.
// pEC50 here means minus log10 of the molar concentration (mol/L)

Data request: # query: pEC50 | item COc1ccc(C2CC3=C(C(=O)O2)C(c2ccccc2Cl)C(C(=O)OC(C)(C)C)=C(C)N3)cc1OC (mixture of isomers) | system: Plasmodium falciparum
Data returned: 5.58

Data request: # query: pEC50 | item CCOC(=O)C1=C(C)NC2=C(C(=O)CC(c3ccc(OC)c(OC)c3)C2)C1c1ccccc1Cl (stereo in doubt; 2B) | system: Plasmodium falciparum
Data returned: 7.80

Data request: # query: pEC50 | item CCOC(=O)C1=C(C)NC2=C(C(=O)OC(c3ccc(Cl)cc3)C2)C1c1ccccc1Cl (stereo in doubt; 20A) | system: Plasmodium falciparum
Data returned: 6.25

###

test_details: Cytotoxicity against mouse J774.A1 cells
Format: toxicity, cell-based
EC50 listing for selected molecules.

These solved cases illustrate the format of a correct answer.
Data request: Give the measured EC50 of CCOC(=O)C1=C(C)NC2=C(C(=O)OC(c3ccc(OC)c(OC)c3)C2)C1c1cccc(C)c1 (stereo not given) .
Data returned: > 20 µM

Data request: Give the measured EC50 of CCOC(=O)C1=C(C)NC2=C(C(=O)OC(c3ccc(OC)c(OC)c3)C2)C1c1ccccc1 (stereo in doubt; 1A) .
Data returned: > 20 µM

Data request: Give the measured EC50 of CCOC(=O)C1=C(C)NC2=C(C(=O)OC(c3ccc(OC)c(OC)c3)C2)C1c1ccc([N+](=O)[O-])cc1 (stereo in doubt; 13A) .
Data returned: > 20 µM

Data request: Give the measured EC50 of CCOC(=O)C1=C(C)NC2=C(C(=O)OC(c3ccc(OC)c(OC)c3)C2)C1c1ccccc1C (stereo in doubt; 6A) .
Data returned: > 20 µM

Data request: Give the measured EC50 of CCOC(=O)C1=C(C)NC2=C(C(=O)CC(c3ccc(OC)c(OC)c3)C2)C1c1ccccc1Cl (stereo in doubt; 2A) .
Data returned: > 20 µM

Next:
Data request: Give the measured EC50 of CCOC(=O)C1=C(C)NC2=C(C(=O)OC(c3ccc(OC)c(OC)c3)C2)C1c1ccc(C)cc1 (stereo in doubt; 8A) .
Data returned: > 20 µM

Data request: Give the measured EC50 of CCOC(=O)C1=C(c2ccccc2)NC2=C(C(=O)CC(c3ccc(OC)c(OC)c3)C2)C1c1ccccc1Cl (stereo in doubt; 35A) .
Data returned: > 20 µM

Data request: Give the measured EC50 of CCOC(=O)C1=C(C)NC2=C(C(=O)OC(c3ccc(C)cc3)C2)C1c1ccccc1Cl (stereo in doubt; 23A) .
Data returned: > 20 µM

Data request: Give the measured EC50 of CCOC(=O)C1=C(C)NC2=C(C(=O)OC(c3cccc(OC)c3)C2)C1c1ccccc1Cl (stereo in doubt; 25A) .
Data returned: > 20 µM

###

EC50 listing for selected compounds.
System: Plasmodium falciparum
test_details: Antimalarial activity against chloroquine-resistant Plasmodium falciparum K1 infected in erythroctes incubated for 72 hrs by SYBR green 1 based spectrofluorometer
Assay type: functional, organism-based, Erythrocyte
condition_details: erythrocyte
Could you give me the number in nM? Just the number is fine.

Data request: # query: EC50 | item CCCC1=C(C(=O)OCC)C(c2ccccc2Cl)C2=C(CC(c3ccc(OC)c(OC)c3)CC2=O)N1 (stereo in doubt; 43B) | system: Plasmodium falciparum
Data returned: 1.3

Data request: # query: EC50 | item CCCC1=C(C(=O)OCC)C(c2ccc(Cl)cc2C)C2=C(CC(c3ccc(Cl)c(OC)c3)CC2=O)N1 (mixture of isomers) | system: Plasmodium falciparum
Data returned: 48.9

Data request: # query: EC50 | item CCOC(=O)C1=C(C)NC2=C(C(=O)CC(c3ccc(OC)c(OC)c3)C2)C1c1ccc(Cl)cc1C (stereo in doubt; 37A) | system: Plasmodium falciparum
Data returned: 82.6

Data request: # query: EC50 | item CCOC(=O)C1=C(C)NC2=C(C(=O)CC(c3ccc(Cl)c(OC)c3)C2)C1c1ccccc1Cl (stereo in doubt; 39B) | system: Plasmodium falciparum
Data returned: 22.3

Data request: # query: EC50 | item CCOC(=O)C1=C(C)NC2=C(C(=O)OC(c3ccc(OC)c(OC)c3)C2)C1c1ccc(C)cc1 (stereo in doubt; 8B) | system: Plasmodium falciparum
Data returned: 605

###

Tested on: Plasmodium berghei
test_details: Antiplasmodial activity against Plasmodium berghei KBG-173 infected in male mouse assessed as inhibition of parasitemia at 50 mg/kg, po administered as single dose on day 1 post exposure and measured on day 3 post exposure relative to control
Assay type: functional
condition_details: KBG-173, 72 h, time 3 day
readout_type: inhibition in vivo at 50 mg/kg

These solved cases illustrate the format of a correct answer.
Data request: Give the measured inhibition in vivo at 50 mg/kg of CCCC1=C(C(=O)OCC)C(c2ccccc2Cl)C2=C(CC(c3ccc(OC)c(OC)c3)CC2=O)N1 (stereo in doubt; 43B) .
Data returned: < 10%

Data request: Give the measured inhibition in vivo at 50 mg/kg of CCOC(=O)C1=C(C)NC2=C(C(=O)CC(c3ccc(Cl)c(OC)c3)C2)C1c1ccccc1Cl (stereo in doubt; 39B) .
Data returned: < 10%

Data request: Give the measured inhibition in vivo at 50 mg/kg of CCCC1=C(C(=O)OCC)C(c2ccc(Cl)cc2C)C2=C(CC(c3ccc(Cl)c(OC)c3)OC2=O)N1 (stereo in doubt; 47B) .
Data returned: < 10%

Data request: Give the measured inhibition in vivo at 50 mg/kg of CCOC(=O)C1=C(C)NC2=C(C(=O)OC(c3ccc(OC)c(OC)c3)C2)C1c1ccc(Cl)cc1C (stereo in doubt; 38B) .
Data returned: < 10%

Data request: Give the measured inhibition in vivo at 50 mg/kg of CCCC1=C(C(=O)OCC)C(c2ccc(Cl)cc2C)C2=C(CC(c3ccc(OC)c(OC)c3)OC2=O)N1 (stereo in doubt; 45B) .
Data returned: < 10%

Next:
Data request: Give the measured inhibition in vivo at 50 mg/kg of CCOC(=O)C1=C(C)NC2=C(C(=O)OC(c3ccc(Cl)c(OC)c3)C2)C1c1ccc(Cl)cc1C (stereo in doubt; 42B) .
Data returned: 34%

Data request: Give the measured inhibition in vivo at 50 mg/kg of CCOC(=O)C1=C(C)NC2=C(C(=O)OC(c3ccc(Cl)c(OC)c3)C2)C1c1ccccc1Cl (stereo in doubt; 40B) .
Data returned: 66%

###

System: Plasmodium falciparum
test_details: Antimalarial activity against chloroquine-resistant Plasmodium falciparum K1 infected in erythroctes incubated for 72 hrs by SYBR green 1 based spectrofluorometer
Format: functional, organism-based, Erythrocyte
condition_details: erythrocyte
Entries whose EC50 is below 80 nM take true; entries at or above 80 nM take false.

Example entries begin here.
Data request: In plain terms, does CCOC(=O)C1=C(C)NC2=C(C(=O)CC(c3ccc(OC)c(OC)c3)C2)C1c1ccccc1Cl (mixture of isomers) come in under 80 nM for EC50?
Data returned: true

Data request: In plain terms, does CCCC1=C(C(=O)OCC)C(c2ccc(Cl)cc2C)C2=C(CC(c3cc(OC)ccc3OC)CC2=O)N1 (stereo in doubt; 48B) come in under 80 nM for EC50?
Data returned: true

Data request: In plain terms, does CCOC(=O)C1=C(C)NC2=C(C(=O)OC(c3ccc(OC)c(OC)c3)C2)C1c1ccccc1OC (stereo in doubt; 9B) come in under 80 nM for EC50?
Data returned: false

Data request: In plain terms, does CCOC(=O)C1=C(C)NC2=C(C(=O)OC(c3cccc(OC)c3)C2)C1c1ccccc1Cl (mixture of isomers) come in under 80 nM for EC50?
Data returned: false

Data request: In plain terms, does CCCC1=C(C(=O)OCC)C(c2ccc(Cl)cc2C)C2=C(CC(c3ccc(Cl)c(OC)c3)CC2=O)N1 (stereo in doubt; 46B) come in under 80 nM for EC50?
Data returned: true

Data request: In plain terms, does CCOC(=O)C1=C(C)NC2=C(C(=O)OC(c3ccc(Cl)c(OC)c3)C2)C1c1ccccc1Cl (stereo in doubt; 40A) come in under 80 nM for EC50?
Data returned: false

Data request: In plain terms, does CCOC(=O)C1=C(C)NC2=C(C(=O)OC(c3ccc(OC)c(OC)c3)C2)C1c1ccc(Br)cc1 (stereo in doubt; 12B) come in under 80 nM for EC50?
Data returned: false

Data request: In plain terms, does CCOC(=O)C1=C(C)NC2=C(C(=O)OC(c3cc(OC)c(OC)c(OC)c3)C2)C1c1ccccc1Cl (stereo in doubt; 54A) come in under 80 nM for EC50?
Data returned: false

Data request: In plain terms, does CCOC(=O)C1=C(C)NC2=C(C(=O)OC(c3ccc(OC)c(OC)c3)C2)C1c1ccccc1 (mixture of isomers) come in under 80 nM for EC50?
Data returned: false

Data request: In plain terms, does CCOC(=O)C1=C(c2ccccc2)NC2=C(C(=O)CC(c3ccc(OC)c(OC)c3)C2)C1c1ccccc1Cl (stereo in doubt; 35B) come in under 80 nM for EC50?
Data returned: true

Next:
Data request: In plain terms, does CCOC(=O)C1=C(C)NC2=C(C(=O)OC(c3ccc(OC)c(OC)c3)C2)C1c1ccc([N+](=O)[O-])cc1 (stereo in doubt; 13A) come in under 80 nM for EC50?
Data returned: false

Data request: In plain terms, does CCCC1=C(C(=O)OCC)C(c2ccc(Cl)cc2C)C2=C(CC(c3cc(OC)ccc3OC)CC2=O)N1 (stereo in doubt; 48A) come in under 80 nM for EC50?
Data returned: false

Data request: In plain terms, does CCOC(=O)C1=C(C)NC2=C(C(=O)OC(c3cccc(OC)c3)C2)C1c1ccccc1Cl (stereo in doubt; 25B) come in under 80 nM for EC50?
Data returned: false
